Test system: RAF1;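 also: KINOMEscan kinase panel screen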
CONDITIONS_USED: concentration: 1 μM, replicates: in singlicate; n = 1
%Inh values by entry

{"MOLECULE": "Fc1cccc(COc2ccc(Nc3ncnc4sc(-c5ccc[nH]5)cc34)cc2Cl)c1", "SYSTEM_UNDER_TEST": "RAF1", "RESULT_UNITS": "%", "%Inh": 18}
{"MOLECULE": "CC(C)N1CCC(n2cnc(-c3ccc(F)cc3)c2-c2ccnc(N)n2)CC1", "SYSTEM_UNDER_TEST": "RAF1", "RESULT_UNITS": "%", "%Inh": 33}
{"MOLECULE": "CSc1nn2c(=O)cc(N3CCOCC3)nc2n1Cc1cccc(Cl)c1Cl", "SYSTEM_UNDER_TEST": "RAF1", "RESULT_UNITS": "%", "%Inh": 6}
{"MOLECULE": "Nc1nccc2scc(-c3ccc4c(c3)CCN4C(=O)Cc3cc(F)ccc3F)c12", "SYSTEM_UNDER_TEST": "RAF1", "RESULT_UNITS": "%", "%Inh": 18}
{"MOLECULE": "CCn1c(-c2ccncc2)nc2cnccc21", "SYSTEM_UNDER_TEST": "RAF1", "RESULT_UNITS": "%", "%Inh": 6}
{"MOLECULE": "Nc1n[nH]c2nnc(-c3ccccc3)cc12", "SYSTEM_UNDER_TEST": "RAF1", "RESULT_UNITS": "%", "%Inh": 6}
{"MOLECULE": "CCCc1ccc(S(=O)(=O)NC2CCN(c3ccnc(Nc4ccc(OC)cc4)n3)C2)cc1 (stereo not shown)", "SYSTEM_UNDER_TEST": "RAF1", "RESULT_UNITS": "%", "%Inh": 0}
{"MOLECULE": "Nc1nc(-c2cccnc2)c(-c2ccnc3ccccc23)s1", "SYSTEM_UNDER_TEST": "RAF1", "RESULT_UNITS": "%", "%Inh": 11}
{"MOLECULE": "Cc1cc(N2CCC(NS(=O)(=O)c3ccc(F)cc3)CC2)nc(Nc2cccc(C#N)c2)n1.O=C(O)C(F)(F)F", "SYSTEM_UNDER_TEST": "RAF1", "RESULT_UNITS": "%", "%Inh": 0}
{"MOLECULE": "Nc1nc(-c2ccccn2)c(-c2ccnc3ccccc23)s1", "SYSTEM_UNDER_TEST": "RAF1", "RESULT_UNITS": "%", "%Inh": 15}
{"MOLECULE": "COC(=O)c1cccc(NC(=O)NCCNc2ccnc(Nc3ccc(F)cc3)n2)c1", "SYSTEM_UNDER_TEST": "RAF1", "RESULT_UNITS": "%", "%Inh": 11}
{"MOLECULE": "Nc1nc(-c2ccc3c(N)n[nH]c3c2)cc(N2CCC[C@@H](C(=O)Nc3ccccc3)C2)n1.O=C(O)C(F)(F)F.O=C(O)C(F)(F)F", "SYSTEM_UNDER_TEST": "RAF1", "RESULT_UNITS": "%", "%Inh": 0}
{"MOLECULE": "O=C(Nc1n[nH]c2nc(-c3ccco3)c(Br)cc12)c1ccc(CN2CCCC2)cc1.O=C(O)[C@H](O)[C@@H](O)C(=O)O", "SYSTEM_UNDER_TEST": "RAF1", "RESULT_UNITS": "%", "%Inh": 17}

Data origin, for the record: paper PMC5540273
